testDescription: chemical genetic growth profiling, strain panel (AID 1159580);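 also: tested at 20 µM; growth read once vehicle control cultures reached saturation at 30 °C; 1 = growth at the plate median or of vehicle wells; lower values mean less growth of the strain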
assayContext: S. cerevisiae deletion strains, growth OD, locus YPR119W, strain clb2, hits give low values
Among all 5,500 compounds or so, about 2,000 (36%) were called active. Another 18% or so got no clear call; they are omitted. This is one part of the list. Where a SMILES comes first, the peptide text is derived from it. Bridges are numbered along the chain shown (N, C = ends). [ ]: non-standard residue; d: D form. The star is where a group is joined. ξ: configuration not given here. ξDab(CH2SO3H) = NC(CCNCS(=O)(=O)O)C(=O)O; Heptanoyl(6-Me) = CC(C)CCCCC(=O)*; Dab = NCC[CH](N)C(=O)O
Overview of recorded normalized growth for various molecules
Answer with a bare number; do not write a unit.

Observe how each entry below is paired with its result.
NCCC(=O)N[C@@H](Cc1cnc[nH]1)C(=O)O    0.984
C/C=C(/C)C(=O)O[C@H]1CC[C@@]2(C)[C@@H]3CC[C@H]4[C@]5(O)C[C@H](O)[C@@]6(O)[C@@H](CN7C[C@@H](C)CC[C@H]7[C@@]6(C)O)[C@]5(O)C[C@@]42O[C@]13O    0.963
O=C1C(O)=C(O)C(=O)C(O)=C1O    0.996

Please turn your attention to the following entry.
// lookup normalized growth for CCC(C)C1NC(=O)C(CCNCS(=O)(=O)O)NC(=O)C(NC(=O)C(CCNCS(=O)(=O)O)NC(=O)C(NC(=O)C(CCNCS(=O)(=O)O)NC(=O)CCCCC(C)C)C(C)O)CCNC(=O)C(C(C)O)NC(=O)C(CCNCS(=O)(=O)O)NC(=O)C(CCNCS(=O)(=O)O)NC(=O)C(C(C)CC)NC1=O (centres undefined) ({Heptanoyl(6-Me)}-[ξDab(CH2SO3H)]T[ξDab(CH2SO3H)][Dab][ξDab(CH2SO3H)]II[ξDab(CH2SO3H)][ξDab(CH2SO3H)]T; lactam 4-C; configuration not given here) 0.955

====

testDescription: chemical genetic growth profiling, strain panel (AID 1159580);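 also: tested at 20 µM; growth read once vehicle control cultures reached saturation at 30 °C; 1 = growth at the plate median or of vehicle wells; lower values mean less growth of the strain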
assayContext: S. cerevisiae deletion strains, growth OD, locus YHR087W, strain rtc3, hits give low values
Out of some 5,500 compounds screened, about 2,000 (36%) were called active. Another 18% or so got no clear call; they are omitted. This is one part of the list.
One threshold, 1, splits the recorded normalized growth values: lower ones are Criterion met, equal or higher ones are Criterion not met.

O=C(Nc1ccc(Cl)c(Cl)c1)c1ccccc1    Criterion met
O=C1ON=C(CSc2ccccc2)/C1=C/c1ccc(Cl)cc1    Criterion met
NC(=S)COc1ccccc1Cl    Criterion not met
O=C(CSCc1c(F)cccc1Cl)NC1Cc2ccccc2C1    Criterion met
O=C1ON=C(c2ccccc2)/C1=C/c1ccc(Cl)cc1    Criterion met

Given the entry CC12CCC3C4CCC(=O)C=C4CCC3C1CCC2=O (configuration not stated) , would its reported normalized growth be below 1? Criterion not met

Determine if `Cc1cc(OCOc2ccc(Cl)c(C)c2)ccc1Cl` shows normalized growth strictly lower than 1. Criterion met

Problem: For the compound `O=C(Nc1cc2cc([N+](=O)[O-])ccc2oc1=O)c1c(F)cccc1F` , is normalized growth under 1? Criterion not met

Quick check: normalized growth of `N#CC(C#N)=CNc1cccc(N)n1` under 1? Criterion met

Lab log: compare recorded normalized growth with 1; is it strictly lower for CCc1cc2c(cc1C(=O)CC1(O)C(=O)Nc3ccc(Br)cc31)C(C)(C)CCC2(C)C (configuration not stated) ? Criterion met
